Each entry below lists one item and its recorded pIC50 value.
biological target: KDR (Homo sapiens, UniProt P35968); test: KDR HTRF in vitro kinase assay; assay type: biochemical; parameters: purified enzyme (His6-KDR 789-1354, MW 63 kD); settings: 1 mM ATP, 60 minutes
Sequence (P35968 789-1354): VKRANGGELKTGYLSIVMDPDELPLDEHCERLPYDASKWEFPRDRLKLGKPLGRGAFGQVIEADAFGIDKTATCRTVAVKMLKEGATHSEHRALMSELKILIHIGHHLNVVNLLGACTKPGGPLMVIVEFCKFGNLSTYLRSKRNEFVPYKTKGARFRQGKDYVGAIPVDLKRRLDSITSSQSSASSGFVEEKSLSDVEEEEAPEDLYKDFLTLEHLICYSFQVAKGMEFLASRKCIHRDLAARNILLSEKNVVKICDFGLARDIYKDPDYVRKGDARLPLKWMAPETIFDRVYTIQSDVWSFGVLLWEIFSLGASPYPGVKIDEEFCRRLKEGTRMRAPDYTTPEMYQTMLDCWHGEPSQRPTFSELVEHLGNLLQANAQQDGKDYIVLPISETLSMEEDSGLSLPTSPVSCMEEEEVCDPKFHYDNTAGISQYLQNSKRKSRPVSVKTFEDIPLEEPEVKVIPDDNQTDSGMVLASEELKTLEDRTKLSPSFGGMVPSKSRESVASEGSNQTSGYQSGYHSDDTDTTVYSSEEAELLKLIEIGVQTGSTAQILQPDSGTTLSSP
FYI, pIC50 means -log10 of a concentration in mol per litre.

Solved cases (8 shown):
Qu. GET pIC50 where system = KDR (Homo sapiens, UniProt P35968) and item = `Cc1cccc(NC(=O)Nc2ccc(-c3ccc4c(-c5cscn5)n[nH]c4c3)cc2)c1`
Ans. 6.25

Qu. Report pIC50 on KDR (Homo sapiens, UniProt P35968) for this entry: `O=C(Nc1ccc(-c2ccc3c(-c4cnn(CCO)c4)n[nH]c3c2)cc1)Nc1cccc(F)c1`
Ans. 7.29

Qu. Provide pIC50, tested on KDR (Homo sapiens, UniProt P35968), for `Cc1cccc(NC(=O)Nc2cccc(-c3ccc4c(-c5cccnc5)n[nH]c4c3)c2)c1` .
Ans. 6.56

Qu. // output pIC50; input `Cc1cccc(NC(=O)Nc2ccc(-c3ccc4c(-c5cnn(CCN6CCOCC6)c5)n[nH]c4c3)cc2)c1` ; system KDR (Homo sapiens, UniProt P35968)
Ans. 7.50

Qu. Determine reported pIC50 for `O=C(Nc1ccc(-c2ccc3c(-c4cnn(C5CCNCC5)c4)n[nH]c3c2)cc1)Nc1cccc(F)c1` ; test system: KDR (Homo sapiens, UniProt P35968).
Ans. 7.35

Qu. Fill in pIC50 for `Cn1cc(-c2n[nH]c3cc(-c4ccc(NC(=O)Nc5cccc(Cl)c5)cc4)ccc23)cn1` tested with KDR (Homo sapiens, UniProt P35968).
Ans. 7.83

Qu. Please report the measured pIC50 for `Cc1cccc(NC(=O)Nc2ccc(-c3ccc4c(-c5cnn(CCO)c5)n[nH]c4c3)cc2)c1` tested on KDR (Homo sapiens, UniProt P35968).
Ans. 7.22

Qu. Give the observed pIC50 of `Cc1cccc(NC(=O)Nc2ccc(-c3ccc4c(-c5cnn[nH]5)n[nH]c4c3)cc2)c1` for KDR (Homo sapiens, UniProt P35968).
Ans. 7.35

# evaluate next
Qu. Quote pIC50 with test system KDR (Homo sapiens, UniProt P35968) for `Cn1cc(-c2n[nH]c3cc(-c4ccc(NC(=O)Nc5ccc(Cl)cc5)cc4)ccc23)cn1`
Ans. 6.91

---

molecular target: Aurora B (Homo sapiens, UniProt Q96GD4); construct: Active Aurora B enzyme (recombinant residues 1-344); experiment: Aurora B enzyme assay (time-resolved fluorescence, histone H3 peptide); conditions: 1 mM ATP, 1 hour
Sequence (Q96GD4 whole entry, the tested form may be a part): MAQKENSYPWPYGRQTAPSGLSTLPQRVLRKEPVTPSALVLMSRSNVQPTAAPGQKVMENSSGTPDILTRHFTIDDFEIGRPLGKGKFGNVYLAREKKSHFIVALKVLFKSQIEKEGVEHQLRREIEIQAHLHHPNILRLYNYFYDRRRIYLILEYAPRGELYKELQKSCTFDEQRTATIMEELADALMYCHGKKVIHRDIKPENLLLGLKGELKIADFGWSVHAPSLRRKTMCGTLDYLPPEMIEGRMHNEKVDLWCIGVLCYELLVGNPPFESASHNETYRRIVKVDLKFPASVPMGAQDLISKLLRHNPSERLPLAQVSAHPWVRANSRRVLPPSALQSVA
Sequence (Q9NQS7 826-918 partner limits assumed): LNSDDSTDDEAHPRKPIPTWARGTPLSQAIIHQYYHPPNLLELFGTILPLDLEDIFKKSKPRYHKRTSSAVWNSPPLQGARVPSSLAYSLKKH
experimental.readout: pIC50
// pIC50: -log10(molar conc.)

Solved cases (3 shown):
Qu. Quick one: give measured pIC50 for `Cn1cc(-c2n[nH]c3cc(-c4ccc(NC(=O)Nc5cccc(OC(F)(F)F)c5)cc4)ccc23)cn1`
Ans. 6.31

Qu. Name the recorded pIC50 of the item `Cn1cc(-c2n[nH]c3cc(-c4ccc(NC(=O)Nc5ccccc5OC(F)(F)F)cc4)ccc23)cn1` in your answer.
Ans. 6.11

Qu. Assign pIC50 to the following record: `Cc1cccc(NC(=O)Nc2ccc(-c3ccc4c(-c5ccc[nH]5)n[nH]c4c3)cc2)c1`
Ans. 6.68

Next:
Qu. Return pIC50 (reported value) for this compound: `Cn1cc(-c2n[nH]c3cc(-c4ccc(CNC(=O)c5cccc(F)c5)cc4)ccc23)cn1`
Ans. 6.85

Value source: patent US8293738B2
